System: Human alphaherpesvirus 1
Assay: Minimal inhibitory concentration to reduce virus-induced cytopathicity against McIntyre strain of human Herpes Simplex Virus-1
Type: functional
Grouping key: MIC. Bins: lower band = under 0.01 µg/mL, central band = from 0.01 µg/mL up to 0.7 µg/mL, upper band = 0.7 µg/mL and over

# compound, group
records = [
    ("Cc1ccc(-c2cn3c(O)c4ncn(COC(CO)CO)c4nc3n2)cc1", "central band"),
    ("Cc1c(-c2ccccc2)nc2nc3c(ncn3COC(CO)CO)c(O)n12", "lower band"),
    ("OCCOCn1cnc2c(O)n3c(CO)cnc3nc21", "upper band"),
    ("COc1ccc(OC)c(-c2cn3c(O)c4ncn(COCCO)c4nc3n2)c1", "upper band"),
    ("Nc1nc2c(ncn2COC(CO)CO)c(=O)[nH]1 [GANCICLOVIR]", "lower band"),
]

**Q:** Exam item: assign Nc1nc2c(ncn2COCCO)c(=O)[nH]1 [ACYCLOVIR] to the correct category.
**A:** central band

**Q:** Exam item: assign COc1ccccc1-c1cn2c(O)c3ncn(COCCO)c3nc2n1 to the correct category.
**A:** upper band

**Q:** Exam item: assign CC(=O)OCCOCn1cnc2c(O)n3cc(-c4ccc5ccccc5c4)nc3nc21 to the correct category.
**A:** upper band

**Q:** Exam item: assign Cc1c(-c2ccccc2)nc2nc3c(ncn3COCCO)c(O)n12 to the correct category.
**A:** central band

---

Tested on: Human alphaherpesvirus 1
Test: Minimal inhibitory concentration to reduce virus-induced cytopathicity against McIntyre strain of human Herpes Simplex Virus-1
Format: functional
reported-property: MIC (µg/mL)
Write the answer as a number in µg/mL, unit excluded.

Example entries begin here.
# compound-structure, target-under-test, MIC, µg/mL
rows = [
    ("COc1cccc(-c2cn3c(O)c4ncn(COCCO)c4nc3n2)c1", "Human alphaherpesvirus 1", 0.64),
    ("OCCOCn1cnc2c(O)n3c(-c4ccccc4)c(-c4ccccc4)nc3nc21", "Human alphaherpesvirus 1", 9.6),
    ("OCC(CO)OCn1cnc2c(O)n3cc(-c4ccccc4)nc3nc21", "Human alphaherpesvirus 1", 0.005),
]

Shifting focus to the compound that follows.
**Q:** Given the compound COc1ccc(-c2cn3c(O)c4ncn(COCCO)c4nc3n2)c(OC)c1 , write its reported MIC.
**A:** 1.92

---

Below, each entry is listed alongside its reported MIC.
System: Vaccinia virus
Assay: Minimal inhibitory concentration to reduce virus-induced cytopathicity against VV
Format: functional
Conditions: Orthopoxvirus vaccinia

# molecule, obs-value
records = [
    ("Nc1nc2c(ncn2COC(CO)CO)c(=O)[nH]1 [GANCICLOVIR]", "> 100 µg/mL"),
]

**Q:** Given the molecule COc1ccc(-c2cn3c(O)c4ncn(COC(CO)CO)c4nc3n2)cc1 , write its reported MIC.
**A:** > 80 µg/mL

**Q:** Given the molecule COc1ccc(-c2nc3nc4c(ncn4COCCO)c(O)n3c2-c2ccc(C(c3ccccc3)c3ccccc3)cc2)cc1 , write its reported MIC.
**A:** > 16 µg/mL

---

Below, each entry is listed alongside its reported MIC.
Tested on: Human alphaherpesvirus 2
Experiment: Minimal inhibitory concentration to reduce virus-induced cytopathicity against Lyons strain of human Herpes Simplex Virus-2
Assay type: functional
Write the answer as a number in µg/mL, unit excluded.

Example entries begin here.
# compound-structure, reported-property, obs-value
rows = [
    ("Cc1c(-c2ccccc2)nc2nc3c(ncn3COC(CO)CO)c(O)n12", "MIC", 0.02),
    ("Cc1c(-c2ccccc2)nc2nc3c(ncn3COCCO)c(O)n12", "MIC", 0.07),
    ("OCC(CO)OCn1cnc2c(O)n3cc(-c4ccccc4)nc3nc21", "MIC", 0.005),
    ("OCCOCn1cnc2c(O)n3ccnc3nc21", "MIC", 10),
]

**Q:** Given the molecule Cc1ccc(-c2cn3c(O)c4ncn(COCCO)c4nc3n2)cc1 , write its reported MIC.
**A:** 0.4

Where these numbers come from: ChEMBL document CHEMBL1134637
